The measured values listed here are drawn from patent US8084479B2.

biological target: PKBα (Homo sapiens); experiment: PKB kinase assay (P33-labeled ATP, peptide substrate, filter plate); conditions: PKBα enzyme (full length or kinase domain with pleckstrin domain deleted)
Sequence (P31749 118-480 limits assumed): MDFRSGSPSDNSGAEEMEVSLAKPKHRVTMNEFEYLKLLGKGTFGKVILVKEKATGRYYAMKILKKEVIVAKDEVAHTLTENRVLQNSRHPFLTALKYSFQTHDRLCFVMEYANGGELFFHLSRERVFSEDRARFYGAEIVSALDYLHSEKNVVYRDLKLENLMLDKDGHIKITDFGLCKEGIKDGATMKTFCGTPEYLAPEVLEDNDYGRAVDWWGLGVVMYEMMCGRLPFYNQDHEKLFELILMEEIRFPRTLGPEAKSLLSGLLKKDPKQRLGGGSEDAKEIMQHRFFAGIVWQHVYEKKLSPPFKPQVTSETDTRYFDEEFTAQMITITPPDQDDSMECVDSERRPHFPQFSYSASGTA
pIC50: −log10 of the molar value.
For each entry below, report its pIC50 value.

(Q) Report pIC50 for `C[C@@H](Nc1ncc(-c2ccc3c(c2)CC(=O)N3)s1)[C@@H](N)Cc1ccc(C(F)(F)F)cc1`
(A) > 7.30

(Q) Report pIC50 for `COCc1nc(N(C[C@@H](N)Cc2cccc(Cl)c2)C(C)=O)sc1-c1nc2ccncc2s1`
(A) 5.00 to 6.00

(Q) Report pIC50 for `CCC[C@@H](c1ccc(C(F)(F)F)cc1)[C@H](N)CNc1ncc(-c2ccc3cnccc3c2)s1`
(A) > 7.30

(Q) Report pIC50 for `C[C@@H](c1ccc(C(F)(F)F)cc1)[C@H](N)CNc1ncc(-c2ccc3c(c2)C2(CC2)C(=O)N3)s1`
(A) 6.00 to 7.30

(Q) Report pIC50 for `N[C@H](CNc1ncc(-c2cc3ccncc3s2)s1)Cc1ccc(C(F)(F)F)cc1`
(A) > 7.30

(Q) Report pIC50 for `C[C@@H](Nc1ncc(-c2ccc3cnccc3c2)s1)[C@@H](N)Cc1ccc(C(F)(F)F)cc1`
(A) > 7.30

(Q) Report pIC50 for `C[C@@H](c1ccc(C(F)(F)F)nc1)[C@H](N)CNc1ncc(-c2ccc3c(c2)CC(=O)N3)s1`
(A) > 7.30

(Q) Report pIC50 for `N[C@H](CNc1nc(C(F)(F)CO)c(-c2ccc3c(c2)CC(=O)N3)s1)Cc1ccc(C(F)(F)F)cc1`
(A) 5.00 to 6.00
